# Assay Target: neuronal nicotinic cholinergic channels in IMR-32 cells (Homo sapiens, UniProt P30926+P32297)
# Experiment Notes: 86Rb+ efflux in IMR-32 cells (activation, or inhibition of efflux elicited by (S)-nicotine)
# Settings: 86Rb+ efflux, activation
Value Type: EC50 (nM)
One number for each entry, in nM.

Lookup: State the recorded EC50 for this entry: CCCCC#Cc1cncc(OC[C@@H]2CCN2)c1.Cl.Cl [Example 58, Dihydrochloride]
Found: 800

====

Structures can show the parent of a compound that is named as a salt.
Value Type: melting point

List the reported melting point of each compound below.
1. CC(C)(C)C=CC=Cc1cncc(OC[C@@H]2CCN2)c1 (as salt: hydrochloride) [Example 163, Dihydrochloride]
2. C=Cc1cc(OC[C@@H]2CCN2)cnc1Cl.Cl.Cl [Example 165]
3. CCCCCCC#Cc1cncc(OC[C@@H]2CCN2)c1 (as salt: hydrochloride) [Example 63, Dihydrochloride]
4. CN1CCC[C@H]1COc1cnc(Cl)c(-c2cncnc2)c1.Cl [Example 182]
5. Cl.Cl.Cl.c1ncc(-c2cncc(OC[C@@H]3CCCN3)c2)cn1 [Example 174]
6. Clc1ncc(OC[C@@H]2CCCN2)cc1-c1cccs1 (as salt: hydrochloride) [Example 152, Dihydrochloride]

Found:
1. 142 to 144 °C
2. 121 °C (dec.)
3. 88 to 90 °C
4. 200 to 202 °C
5. 110 to 112 °C
6. 208 to 210 °C

====

# Assay Target: neuronal nicotinic cholinergic channels in IMR-32 cells (Homo sapiens, UniProt P30926+P32297)
# Experiment Notes: 86Rb+ efflux in IMR-32 cells (activation, or inhibition of efflux elicited by (S)-nicotine)
# Type: cell-based
# Settings: IMR-32; inhibition of the efflux elicited by 100 μM (S)-nicotine; single dose 10 μM
# From the text: For the purpose of directly evaluating the ability of test compounds to functionally activate or inhibit certain subtypes of neuronal nicotinic cholinergic channels, an assay to determine ^86Rb^+Efflux in IMR-32 cells was employed (Protocol B below). B. Protocols for the Determination of Functional Effects of Cholinerzic Channel Receptor Ligands on Synaptic Transmission […]
Structures can show the parent of a compound that is named as a salt.
Value Type: inhibition at 10 µM (%)
Answers are plain numbers, in %.

Please review the following examples before continuing.
Lookup: State the recorded inhibition at 10 µM for this entry: Cc1ccccc1-c1cncc(OC[C@@H]2CCCN2C)c1 [Example 45, Dihydrochloride]
Found: 100

Lookup: Please do the same for Cc1ccc(-c2cncc(OC[C@@H]3CCCN3C)c2)cc1.Cl.Cl [Example 41, Dihydrochloride] as well.
Found: 100

Lookup: Please do the same for CN1CCC[C@H]1COc1cncc(-c2ccccc2C=O)c1 [Example 44, Dihydrochloride] as well.
Found: 97

List the reported inhibition at 10 µM of each compound below.
1. CN1CCC[C@H]1COc1cncc(C=CC=CC(C)(C)C)c1.Cl.Cl [Example 30, Dihydrochloride]
2. CN1CCC[C@@H]1COc1cncc(-c2ccccc2)c1.Cl.Cl [Example 53, Dihydrochloride]
3. CN1CCC[C@H]1COc1cncc(-c2ccc(Cl)cc2)c1.Cl.Cl [Example 38, Dihydrochloride]
4. CN1CCC[C@H]1COc1cncc(C#CCCCc2ccccc2)c1 [Example 17, Dihydrochloride]
5. CN1CCC[C@H]1COc1cncc(C#Cc2ccccc2)c1.Cl.Cl [Example 40, Dihydrochloride]
6. Cl.Cl.c1ccc(-c2cncc(OC[C@H]3CCCN3)c2)cc1 [Example 52, Dihydrochloride]
7. COC(=O)CCc1cncc(OC[C@@H]2CCCN2C)c1 [Example 15, Dihydrochloride]

Found:
90
100
100
100
100
88
83

====

# Assay Target: neuronal nicotinic cholinergic channel receptors (Rattus norvegicus, UniProt P09483+P12390)
# Sequence (P09483 31-630): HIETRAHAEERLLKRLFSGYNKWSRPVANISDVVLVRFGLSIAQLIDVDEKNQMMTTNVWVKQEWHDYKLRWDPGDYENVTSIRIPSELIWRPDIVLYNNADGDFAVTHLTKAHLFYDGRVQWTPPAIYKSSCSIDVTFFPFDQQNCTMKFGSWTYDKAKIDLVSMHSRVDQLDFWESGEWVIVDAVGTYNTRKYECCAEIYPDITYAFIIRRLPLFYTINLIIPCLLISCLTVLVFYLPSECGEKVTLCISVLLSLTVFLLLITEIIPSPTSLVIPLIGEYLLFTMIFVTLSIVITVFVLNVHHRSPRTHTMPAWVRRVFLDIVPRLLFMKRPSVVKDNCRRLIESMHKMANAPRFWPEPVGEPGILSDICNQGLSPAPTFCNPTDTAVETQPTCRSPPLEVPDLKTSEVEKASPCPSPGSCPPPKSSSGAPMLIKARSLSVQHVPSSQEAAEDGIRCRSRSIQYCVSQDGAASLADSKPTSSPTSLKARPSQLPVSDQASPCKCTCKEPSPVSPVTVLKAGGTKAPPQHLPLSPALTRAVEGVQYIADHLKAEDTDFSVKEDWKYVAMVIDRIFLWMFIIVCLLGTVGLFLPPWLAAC
# Sequence (P12390 25-500): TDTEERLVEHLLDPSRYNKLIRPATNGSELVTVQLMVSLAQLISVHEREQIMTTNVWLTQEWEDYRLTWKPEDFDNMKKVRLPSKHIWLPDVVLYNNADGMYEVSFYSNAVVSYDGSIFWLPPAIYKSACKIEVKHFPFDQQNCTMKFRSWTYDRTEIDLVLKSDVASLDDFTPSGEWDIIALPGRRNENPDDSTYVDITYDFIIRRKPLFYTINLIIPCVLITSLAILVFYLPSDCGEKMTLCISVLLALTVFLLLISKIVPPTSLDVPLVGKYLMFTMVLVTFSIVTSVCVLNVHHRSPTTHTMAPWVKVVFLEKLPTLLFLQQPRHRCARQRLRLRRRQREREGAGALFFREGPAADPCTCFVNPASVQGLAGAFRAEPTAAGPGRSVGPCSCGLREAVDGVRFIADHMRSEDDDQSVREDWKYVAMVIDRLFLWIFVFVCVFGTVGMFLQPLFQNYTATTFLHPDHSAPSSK
# Settings: displacement of [3H]-cytisine (1.25 nM), whole rat brain membranes; Ki from IC50 by Cheng and Prusoff correction; read-out: Binding Ki
Counter-ions that a name gives are not always drawn.
Value Type: log10(Ki) (log10 of the value in nM)
# values: log10(Ki), units nM

Please review the following examples before continuing.
Lookup: State the recorded log10(Ki) for this entry: CN1CCC[C@H]1COc1cncc(-c2cccc([N+](=O)[O-])c2)c1 [Example 1, Dihydrochloride]
Found: -0.34

Lookup: Please do the same for CN1CCC[C@H]1COc1cncc(-c2ccco2)c1 [Example 5, Dihydrochloride] as well.
Found: -0.72

Lookup: Please do the same for CN1CCC[C@H]1COc1cncc(-c2cccc(N)c2)c1.Cl.Cl [Example 43, Dihydrochloride] as well.
Found: -0.37

Lookup: Please do the same for CN1CCC[C@H]1COc1cncc(-c2cccc3ccccc23)c1 [Example 2, Dihydrochloride] as well.
Found: 0.62

List the reported log10(Ki) of each molecule below.
1. Cl.Cl.Clc1ncc(OC[C@@H]2CCCN2)cc1-c1cccnc1 [Example 34, Dihydrochloride]
2. CCCCC#Cc1cncc(OC[C@@H]2CCN2)c1.Cl.Cl [Example 58, Dihydrochloride]
3. CN1CCC[C@H]1COc1cncc(-c2cccnc2)c1.Cl.Cl [Example 7, Dihydrochloride]

Found:
-1.68
-1.25
-0.57

List the reported log10(Ki) of each molecule below.
1. CN1CCC[C@H]1COc1cncc(-c2cccs2)c1 [Example 6, Dihydrochloride]
2. CN1CCC[C@H]1COc1cncc(-c2cc3ccccc3n2C)c1.Cl [Example 36, Hydrochloride]

Found:
1. -0.51
2. -0.49

====

Assignment: determine reported inhibition at 1 µM for the given molecules.
# Assay Target: neuronal nicotinic cholinergic channels in IMR-32 cells (Homo sapiens, UniProt P30926+P32297)
# Experiment Notes: 86Rb+ efflux in IMR-32 cells (activation, or inhibition of efflux elicited by (S)-nicotine)
# Type: cell-based
# Settings: IMR-32; inhibition of the efflux elicited by 100 μM (S)-nicotine; single dose 1 μM
Counter-ions that a name gives are not always drawn.
Please answer in the form of a number followed by its unit of measurement.

Please review the following examples before continuing.
Lookup: State the recorded inhibition at 1 µM for this entry: COc1ccc(-c2cncc(OC[C@@H]3CCCN3C)c2)cc1 [Example 3, Dihydrochloride]
Found: 39%

Lookup: Please do the same for Cc1ccc(-c2cncc(OC[C@@H]3CCCN3C)c2)cc1.Cl.Cl [Example 41, Dihydrochloride] as well.
Found: 41%

Lookup: Please do the same for CC(=O)c1cncc(OC[C@@H]2CCCN2C)c1 [Example 10, Dihydrochloride] as well.
Found: 32%

Lookup: Please do the same for Cl.Cl.c1ccc(-c2cncc(OC[C@H]3CCCN3)c2)cc1 [Example 52, Dihydrochloride] as well.
Found: 22%

Lookup: Please do the same for CN1CCC[C@H]1COc1cnc(Cl)c(Br)c1.Cl.Cl [Example 24, Dihydrochloride] as well.
Found: 17%

Lookup: Please do the same for COC(=O)c1cncc(OC[C@@H]2CCCN2C)c1 [Example 27, Dihydrochloride] as well.
Found: 26%

Lookup: Please do the same for COC(=O)C=Cc1cncc(OC[C@@H]2CCCN2C)c1 [Example 16, Dihydrochloride] as well.
Found: 6%

Lookup: Please do the same for CN1CCC[C@H]1COc1cncc(-c2cccc(N)c2)c1.Cl.Cl [Example 43, Dihydrochloride] as well.
Found: 36%

List the reported inhibition at 1 µM of each molecule below.
1. CN1CCC[C@H]1COc1cncc(C#CCCCCO)c1 [Example 28, Dihydrochloride]
2. CN1CCC[C@H]1COc1cncc(-c2ccc(C(F)(F)F)cc2)c1 [Example 46, Dihydrochloride]
3. CN1CCC[C@H]1COc1cncc(-c2cc3ccccc3n2C)c1.Cl [Example 36, Hydrochloride]
4. CN1CCC[C@H]1COc1cncc(-c2cnc3ccccc3c2)c1 [Example 35, Trihydrochloride]
5. Cl.Cl.c1ccc(-c2cncc(OC[C@@H]3CCCN3)c2)cc1 [Example 51, Dihydrochloride]
6. CN1CCC[C@H]1COc1cncc(/C=C/c2ccccc2)c1 [Example 18, Dihydrochloride]
7. CN1CCC[C@H]1COc1cncc(-c2ccc3ccccc3c2)c1 [Example 31, Dihydrochloride]

Found:
1. 20%
2. 37%
3. 28%
4. 34%
5. 42%
6. 43%
7. 37%

List the reported inhibition at 1 µM of each molecule below.
1. CN1CCC[C@H]1COc1cncc(C=CC=CC(C)(C)C)c1.Cl.Cl [Example 30, Dihydrochloride]
2. CN1CCC[C@H]1COc1cncc(-c2ccco2)c1 [Example 5, Dihydrochloride]

Found:
1. 21%
2. 27%

List the reported inhibition at 1 µM of each molecule below.
1. CCCC(=O)C=Cc1cncc(OC[C@@H]2CCCN2C)c1 [Example 22, Dihydrochloride]
2. CN1CCC[C@H]1COc1cncc(CCc2ccccc2)c1 [Example 21, Dihydrochloride]
3. CN1CCC[C@H]1COc1cncc(-c2ccc(F)cc2)c1 [Example 11, Dihydrochloride]
4. CN1CCC[C@H]1COc1cncc(-c2ccc(F)c(Cl)c2)c1 [Example 42, Dihydrochloride]
5. CN1CC[C@H]1COc1cncc(-c2ccccc2)c1.Cl.Cl [Example 57, Dihydrochloride]
6. CN1CCC[C@H]1COc1cncc(-c2cc(C(F)(F)F)cc(C(F)(F)F)c2)c1 [Example 37, Dihydrochloride]
7. CN1CCC[C@H]1COc1cncc(C#CCCCC#N)c1 [Example 14, Dihydrochloride]

Found:
["44%", "22%", "38%", "38%", "21%", "41%", "50%"]

Lookup: State the recorded inhibition at 1 µM for this entry: CN1CCC[C@@H]1COc1cncc(-c2ccccc2)c1.Cl.Cl [Example 53, Dihydrochloride]
Found: 35%

Source: patent US6437138B1
